- measurement-target: human TLR9 (Homo sapiens (Human))
- Sequence (Q9NR96 26-1032): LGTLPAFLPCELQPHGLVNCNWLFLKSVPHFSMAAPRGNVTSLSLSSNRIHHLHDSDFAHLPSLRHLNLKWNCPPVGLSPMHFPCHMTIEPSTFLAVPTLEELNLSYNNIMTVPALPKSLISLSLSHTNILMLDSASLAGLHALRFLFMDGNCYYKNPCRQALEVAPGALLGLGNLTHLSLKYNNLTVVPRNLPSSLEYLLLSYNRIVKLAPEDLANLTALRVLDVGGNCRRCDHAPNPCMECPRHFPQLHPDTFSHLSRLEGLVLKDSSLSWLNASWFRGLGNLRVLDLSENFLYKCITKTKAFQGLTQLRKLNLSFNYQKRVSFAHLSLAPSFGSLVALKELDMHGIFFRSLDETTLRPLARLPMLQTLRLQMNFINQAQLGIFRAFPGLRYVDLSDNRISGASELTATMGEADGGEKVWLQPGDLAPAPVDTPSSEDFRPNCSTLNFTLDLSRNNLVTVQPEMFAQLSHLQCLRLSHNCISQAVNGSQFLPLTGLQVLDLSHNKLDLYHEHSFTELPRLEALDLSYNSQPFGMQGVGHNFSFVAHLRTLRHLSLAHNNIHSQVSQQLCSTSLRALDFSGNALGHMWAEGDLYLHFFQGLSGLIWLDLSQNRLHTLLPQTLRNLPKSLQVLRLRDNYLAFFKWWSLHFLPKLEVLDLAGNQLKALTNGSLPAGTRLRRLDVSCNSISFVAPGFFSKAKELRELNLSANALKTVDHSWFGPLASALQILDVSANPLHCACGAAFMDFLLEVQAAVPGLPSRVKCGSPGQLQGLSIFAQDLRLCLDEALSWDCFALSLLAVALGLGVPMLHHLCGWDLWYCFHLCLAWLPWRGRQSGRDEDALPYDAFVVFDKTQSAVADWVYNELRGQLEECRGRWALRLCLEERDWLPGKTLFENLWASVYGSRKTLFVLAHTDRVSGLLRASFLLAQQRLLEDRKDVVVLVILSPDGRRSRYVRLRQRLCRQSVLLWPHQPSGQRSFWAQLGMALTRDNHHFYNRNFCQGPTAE
- assay-details: TLR9 inhibition reporter assay (HEK-Blue cells, SEAP reporter, ODN2006 stimulation);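 note: compounds tested over 0.05 nM to 50 µM, 22 h incubation, inhibition taken as SEAP signal drop from agonist plus DMSO wells toward a known inhibitor control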
- details: read-out: TLR9 IC50, HEK-Blue cells overexpressing human TLR9, ODN2006 5 nM
assay-endpoint: IC50 (nM)

Worked cases, answers included:
[[record]]
compound = "Cc1cc(-c2[nH]c3ccc(C4CCN(CC(=O)NCC5CC5)CC4)cc3c2C(C)C)cc(C)n1 [Example 223]"
measurement = 1160

[[record]]
compound = "CCc1c(-c2ccnc(OC)c2)[nH]c2ccc(C3CCN(CCNC)CC3)cc12 [Example 778]"
measurement = 1940

[[record]]
compound = "Cc1cc(-c2[nH]c3ccc(C4CCN(Cc5cn(C)nn5)CC4)cc3c2C(C)C)cc(C)n1 [Example 442]"
measurement = 1190

[[record]]
compound = "Cc1cc(-c2[nH]c3ccc(C4CCN(CC(=O)N(C)CC(C)C)CC4)cc3c2C(C)C)cc(C)n1 [Example 245]"
measurement = 954

[[record]]
compound = "Cc1cc(-c2[nH]c3ccc(C4CCN(CC(=O)N5CCOC[C@H]5CO)CC4)cc3c2C(C)C)cc(C)n1 [Example 304]"
measurement = 441


A = CCCCN(CCO)C(=O)CN1CCC(c2ccc3[nH]c(-c4cc(C)nc(C)c4)c(C(C)C)c3c2)CC1 [Example 298]
B = Cc1cc(-c2[nH]c3ccc(C4CCN(Cc5ccncc5)CC4)cc3c2C(C)C)cc(C)n1 [Example 435]
Compare the recorded IC50 of A and B ; state which is larger. Indicate which entry you chose by stating its label.
A
(A: 2670 nM, B: 609 nM)

A = Cc1cc(-c2[nH]c3ccc(C4CCN(CC(F)F)CC4)cc3c2C(C)C)cc(C)n1 [Example 327]
B = Cc1cc(-c2[nH]c3ccc(C4CCN(C(=O)[C@@H]5C[C@@H](F)CN5)CC4)cc3c2C(C)C)cc(C)n1 [Example 190]
Pick one: A or B . Which one has the lower reported IC50? Reply with the label of the item you choose.
B
(B: 281 nM, A: 3720 nM)

A = CC(C)c1c(-c2ccncc2F)[nH]c2ccc(C3CCNCC3)cc12 [Example 7]
B = Cc1cc(-c2[nH]c3ccc(C4CCN(C5CCOC(C)(C)C5)CC4)cc3c2C(C)C)ccn1 (stereo not shown) [Example 719]
C = CCc1c(-c2ccnc(OC)c2)[nH]c2ccc(C3CCNCC3)cc12 [Example 61]
D = Cc1cc(-c2[nH]c3ccc(C4CCN(C5COC5)CC4)cc3c2C(C)C)c(F)cn1 [Example 721]
E = Cc1cc(-c2[nH]c3ccc(C4CCN(Cc5c[nH]cn5)CC4)cc3c2C(C)C)cc(C)n1 [Example 425]
Kindly order the items shown according to IC50, from the highest value down. // rank by listing labels in the order requested
D, A, C, B, E
(D: 19800 nM, A: 3540 nM, C: 2370 nM, B: 638 nM, E: 143 nM)
